Recorded values, source patent US5169780A.

tested on: omega-amino acid transaminase; assay: relative rates of conversion of different chiral amines by soluble enzymatic preparations; format: biochemical; details: amine (R,S) 10 mM
measured-metric: Relative Rate of Conversion S-enantiomer
Hey, just send me the number, nothing else.

The following molecules have reported results that may help.
*Q* Tell me its Relative Rate of Conversion S-enantiomer given CC(N)c1cccc2ccccc12 (stereo not drawn) [1-(α-naphthyl)1-aminoethane] as the entry.
*A* 100

*Q* State its Relative Rate of Conversion S-enantiomer for this molecule: CC(N)Cc1ccccc1 (stereo not shown) [3-phenyl-2-aminopropane]
*A* 0

*Q* Output Relative Rate of Conversion S-enantiomer of CC(N)c1ccccc1 (racemic) [R,S-1-phenyl-1-aminoethane]
*A* 100

Proceeding to the next molecule to report its Relative Rate of Conversion S-enantiomer.
*Q* Input NC(CO)c1ccccc1 (stereo not shown) [phenylglycinol] , output reported Relative Rate of Conversion S-enantiomer.
*A* 0

###

Items are presented alongside their recorded Relative Rate of Conversion R-enantiomer.
test system: omega-amino acid transaminase; assay: relative rates of conversion of different chiral amines by soluble enzymatic preparations; type: biochemical; conditions: amine (R,S) 10 mM
Could you respond with only the numeric value?

*Q* Look up and report measured Relative Rate of Conversion R-enantiomer for this entry: NC(CO)c1ccccc1 (stereo not shown)
*A* 100

*Q* Give the reported value of Relative Rate of Conversion R-enantiomer for this record: CC(N)Cc1ccccc1 (stereo not shown)
*A* 100

*Q* Please look at this compound and report its Relative Rate of Conversion R-enantiomer: CC(N)c1cccc2ccccc12 (stereo not shown)
*A* 0

Please look at the following compound next.
*Q* Consider the compound CC(N)c1ccccc1 (racemic) and give its recorded Relative Rate of Conversion R-enantiomer.
*A* 0

###

Test system: omega-amino acid transaminase
Assay: relative rates of conversion of 1-phenyl-3-aminobutane with different amino acceptors in place of pyruvate
Assay type: biochemical
Details: amino acceptor 20 mM, substrate 1-phenyl-3-aminobutane
Method: Enzyme Activity: Enzyme activity is expressed herein as units/mg. A unit of enzyme activity is defined as that which produces 1 micromole of ketone per minute. For uniformity, this is measured as micromoles of 1-phenylbutan-3-one formed from R,S-1-phenyl-3-aminobutane. The following standardized assay was utilized to measure the activity of the omega-amino acid transaminases set forth in the examples which follow. […]
The following molecules are listed with their measured Relative Rate of Conversion values.
Write the number on its own, no unit after it.

*Q* Determine from records and report Relative Rate of Conversion for O=CC(=O)O [glyoxalate]
*A* 50

More entries:
*Q* Write down Relative Rate of Conversion measured for item CCC=O
*A* 100

*Q* For the molecule CCCC=O , report Relative Rate of Conversion.
*A* 90

*Q* # return recorded Relative Rate of Conversion for input CCC(C)=O
*A* 20

*Q* Answer with the recorded Relative Rate of Conversion for the molecule listed here: CC=O
*A* 50

###

Test system: omega-amino acid transaminase
Test: relative rates of conversion of 1-phenyl-3-aminobutane with different amino acceptors in place of pyruvate
Type: biochemical
Conditions: amino acceptor 25 mM, substrate 1-phenyl-3-aminobutane
Method: Enzyme Activity: Enzyme activity is expressed herein as units/mg. A unit of enzyme activity is defined as that which produces 1 micromole of ketone per minute. For uniformity, this is measured as micromoles of 1-phenylbutan-3-one formed from R,S-1-phenyl-3-aminobutane. The following standardized assay was utilized to measure the activity of the omega-amino acid transaminases set forth in the examples which follow. […]
Kind request: treat 20 as inclusive, so Relative Rate of Conversion at 20 or higher is criterion met, anything lower is criterion not met.

*Q* Does the reported Relative Rate of Conversion for CCCCCCC=O fall at or above the 20 mark?
*A* criterion met

*Q* Test whether the compound CCCC(C)=O records Relative Rate of Conversion of 20 or higher.
*A* criterion met

*Q* Quick check, Relative Rate of Conversion >= 20? O=Cc1ccccc1
*A* criterion not met

*Q* Could you tell me if the measured Relative Rate of Conversion of O=C1CCCC1 reaches 20 or more?
*A* criterion not met

Now for a further compound.
*Q* Entry O=C1CCCCC1 : is its Relative Rate of Conversion no less than 20?
*A* criterion met
